- Test system: SK-MEL-28 melanoma
- PROTOCOL DETAILS: NCI-60 one-dose screen, 48 h (100 = growth as untreated, 0 = no growth, -100 = all killed)
- EXPERIMENTAL CONTEXT: 10 µM unless noted
About 83,000 compounds went through this panel and 20% of them were active in at least one assay; those are over-represented in the sample as a whole.
ASSAY ENDPOINT: growth (%)
Reply numerically in %, unit not repeated.

Give the measured growth of `CCN(CC)Cc1cc(Nc2c3ccc(Cl)cc3nc3ccc(OC)cc23)ccc1O` .
-5.73

Give the measured growth of `Cc1ncc(C(=O)Nc2ccc(CN3CCN(C)CC3)c(C(F)(F)F)c2)cc1C#Cc1ccc(N)nc1` .
-46.2

Give the measured growth of CC1=C(SCCC(=O)OC(C[Se]C2=C(C)C(=O)c3ccccc3C2=O)C(=O)NC(C)(C)C)C(=O)c2ccccc2C1=O (centres undefined) .
-96

Give the measured growth of Cc1cccc(OCC(O)CN2CCN(c3ccc(Cl)cc3)CC2)c1 (centres undefined) .
100

Give the measured growth of `Cc1cc(-c2cc(C)c(N)cc2C)c(C)cc1N` .
89.3

Give the measured growth of `COc1ccc(S(=O)(=O)n2c3ccccc3n3ncc(-c4nnc(C)o4)c23)cc1` .
65.3

Give the measured growth of `COc1ccc(N)c(N)c1` .
111

Give the measured growth of `C[C@H]1[C@H]2[C@H]3CC[C@@H]4[C@@]5(C)CC[C@H](O)C(C)(C)[C@@H]5CC[C@@]4(C)[C@]3(C)CC[C@]23CO[C@]1(C)[C@@H](C(=O)/C=C\c1cccnc1)C3` .
66.2

Give the measured growth of `C[C@]12CC[C@@H]3c4cc(OC(F)F)c(OS(N)(=O)=O)cc4CC[C@H]3[C@@H]1CC[C@@H]2O` .
53.6

Give the measured growth of `CCCCCCn1c(-c2ccc(C(=O)O/N=C(\N)c3ccc(OC)cc3)cc2)nc(-c2ccccc2)c1-c1ccccc1` .
42.1

Give the measured growth of `Cc1ccc(C(=O)N/N=C/c2cccc(Oc3ccccc3)c2)cn1` .
63.7

Give the measured growth of `O=c1c2cc(F)ccc2sc2c(NCCCNCCO)nc3ccccc3c12` .
28.1

Give the measured growth of `CSc1nc2ccc(C)cc2cc1/C=N/O` .
101

Give the measured growth of `COc1ccc(-c2cc(-c3cc(OC)c(OC)c(OC)c3)nc(N3CCOCC3)c2C#N)cc1` .
56.8

Give the measured growth of `N#Cc1cccc(NC(=O)c2cc(-c3ccc(F)cc3F)ccc2O)c1` .
25.6

Give the measured growth of `O=C(Nc1ccc(I)cc1F)c1cc(I)ccc1O` .
5.11

Give the measured growth of `C#C[C@]1(O)CC[C@H]2[C@@H]3CC=C4c5sc(Nc6ccccc6)nc5CC[C@]4(C)[C@H]3CC[C@@]21C` .
-19.9

Give the measured growth of `CCc1cccc2c1S/C(=C/c1ccc(OC)cc1)C2=O` .
59.3

Give the measured growth of `COc1ccc(-c2csc(NC(=O)N3CCN(c4cc5c(cc4F)c(=O)c(C(=O)O)cn5C4CC4)CC3)n2)cc1` .
33.7

Give the measured growth of `CN(C)CCNc1nc2ccccc2c2c(=O)c3cc(F)ccc3sc12` .
55.6

Give the measured growth of `CCOc1ccc2nc(SCc3nc4n(n3)S(=O)(=O)c3ccccc3N4C)sc2c1` .
45.7

Give the measured growth of `Cc1ccc(/C=C(\C#N)n2nc3cccc(F)c3n2)cc1` .
96.2

Give the measured growth of `COc1ccc(-n2c(N)c(-c3nc4ccccc4[nH]3)cc(C#N)c2=O)cc1` .
100

Give the measured growth of `Cc1ccc2sc3c(NCCN)nc4ccccc4c3c(=O)c2c1` .
111

Give the measured growth of `O=C1COCCN1c1ccc(NCc2cn(C(=O)c3ccc(Cl)cc3)c3ccccc23)cc1` .
97

Give the measured growth of `CCC(C)(c1cc(C(C)(C)C)c(O)c(C(C)(C)C)c1)c1cc(C(C)(C)C)c(O)c(C(C)(C)C)c1` .
106

Give the measured growth of `O=C1c2cccc3cccc(c23)C(=O)N1Nc1nc(N2CCOCC2)nc(N2CCN(c3ccccc3)CC2)n1` .
52.5

Give the measured growth of `COc1c(B(O)O)cc(F)cc1-c1nc2ccc3[nH]ncc3c2c2c1CCCC2` .
21.3

Give the measured growth of `Cc1cc2nc3ccc(N=Nc4ccc(N(C)C)cc4)cc3n(-c3ccccc3)c-2cc1=N` .
-96.6

Give the measured growth of `COc1cc2oc(-c3ccc(O)cc3)cc(=O)c2c(O)c1-c1c(OC)cc(O)c2c(=O)cc(-c3ccc(O)cc3)oc12` .
18.3

Give the measured growth of `O=c1c2cc(F)ccc2sc2c(N3CCNCC3)nc3ccccc3c12` .
57.7

Give the measured growth of `CCOC(=O)Cn1c(C)c(/C=N/NC(=O)c2cc3c(ccc4ccccc43)o2)c2ccccc21` .
45.2

Give the measured growth of CC1=C([Se]CC(OC(=O)[C@@H](CSSC(C)(C)C)NC(=O)OC(C)(C)C)C(=O)NC(C)(C)C)C(=O)c2ccccc2C1=O (some centres undefined) .
-96.3

Give the measured growth of `O=C1/C(=C/c2ccccc2[N+](=O)[O-])Oc2ccc(O)c(O)c21` .
22.5

Give the measured growth of `NCCCNc1nc2ccccc2c2c(=O)c3cc(OC(F)(F)F)ccc3sc12` .
84.7

Give the measured growth of `Cc1cc(N2CCCC2)nc(N(CCCNc2ccnc3cc(Cl)ccc23)Cc2ccccn2)n1` .
69.8

Give the measured growth of `Nc1nn(C(=O)Nc2ccc(Cc3ccccc3)cc2)c2ccc(Cl)cc12` .
106

Give the measured growth of CCCCCCCNC(=O)CCCNc1ncnc2c1ncn2-c1cccc(C(C)O)c1 (centres undefined) .
96.2

Give the measured growth of COc1ccc(N2C(=O)C(Oc3ccccc3)C2c2ccc(C)cc2)cc1 (centres undefined) .
99.5
